The measurements presented in this section are drawn from the supplement of paper PMC5908809.

test system: DERL-7 (IL-2 2.5 ng/mL); assay: percent inhibition of viability; higher = more inhibition; conditions: 72 h; 1000 nM

compound	percent inhibition of viability / %
Nc1nc(Cl)nc2c1ncn2[C@@H]1O[C@H](CO)[C@@H](O)[C@@H]1F [Clofarabine] (max concentration tested 10000 nM)	100
CC[C@H](CC#N)OC(=O)N[C@@H](C)c1cccc(NC(=O)Nc2ccc(-c3cnco3)c(OC)c2)c1 [AVN944] (max concentration tested 10000 nM)	89.3
Cc1cc2c(F)c(Oc3ncnn4cc(OC[C@@H](C)O)c(C)c34)ccc2[nH]1 [Brivanib] (max concentration tested 1000 nM)	-1.62
N#CC1(c2ccc(NC(=O)c3cccnc3NCc3ccncc3)cc2)CCCC1 [Apatinib] (max concentration tested 10000 nM)	-4.82
CC[C@H](C)C(=O)O[C@H]1C[C@@H](C)C=C2C=C[C@H](C)[C@H](CC[C@@H]3C[C@@H](O)CC(=O)O3)[C@H]21 [Lovastatin] (max concentration tested 10000 nM)	-2.63
NC(=S)N/N=C/c1ncccc1N [Triapine] (max concentration tested 10000 nM)	-8.15
COc1cc(OC)c(/C=C/S(=O)(=O)Cc2ccc(OC)c(NCC(=O)O)c2)c(OC)c1 [Rigosertib] (max concentration tested 10000 nM)	98
Cc1ccc(Nc2nccc(N(C)c3ccc4c(C)n(C)nc4c3)n2)cc1S(N)(=O)=O [Pazopanib] (max concentration tested 10000 nM)	-6.76
Oc1nc(-c2ccc(C(F)(F)F)cc2)nc2c1CSCC2 [XAV-939] (max concentration tested 10000 nM)	-0.61
C=CCN(/C=C1/C(=O)O[C@H](COC)[C@@]2(C)C1=C(O)C(=O)C1=C2[C@H](OC(C)=O)C[C@]2(C)C(=O)CC[C@@H]12)CC=C [Sonolisib] (max concentration tested 10000 nM)	7.97
C[C@]12O[C@H](C[C@]1(O)CO)n1c3ccccc3c3c4c(c5c6ccccc6n2c5c31)CNC4=O [Lestaurtinib] (max concentration tested 1000 nM)	99.6
CC(C)Oc1cc(Nc2nc(N[C@@H](C)c3ccc(F)cn3)ncc2Cl)n[nH]1 [AZ-23] (max concentration tested 1000 nM)	18.3
COc1cc([C@@H]2c3cc4c(cc3[C@@H](O[C@@H]3O[C@@H]5CO[C@@H](C)O[C@H]5[C@H](O)[C@H]3O)[C@H]3COC(=O)[C@H]23)OCO4)cc(OC)c1O [Etoposide] (max concentration tested 10000 nM)	97

---

Some compounds, each annotated with its measured percent inhibition of viability.
tested on: normal primary NK cells, pool 2 (3 donors) (IL-2 2.5 ng/mL); test: percent inhibition of viability; higher = more inhibition; settings: 72 h; 10000 nM
measured-quantity: percent inhibition of viability (%)

compound	observed-value
N#CC1(c2ccc(NC(=O)c3cccnc3NCc3ccncc3)cc2)CCCC1 [Apatinib] (max concentration tested 10000 nM)	-5.6
CC(C)n1cnc2c(NCCc3ccc(O)cc3)nc(-c3csc4ccccc34)nc21 [StemRegenin 1] (max concentration tested 10000 nM)	54.6
N#Cc1ccc2[nH]c(O)c(-c3ccc(CN4CCOCC4)cn3)c2c1 [AZD-1080] (max concentration tested 10000 nM)	2.97

---

Some molecules, each annotated with its measured percent inhibition of viability.
tested on: KAI3 (IL-2 2.5 ng/mL); assay: percent inhibition of viability; higher = more inhibition; details: 72 h; 100 nM

molecule	percent inhibition of viability
C=C(c1ccc(C(=O)O)cc1)c1cc2c(cc1C)C(C)(C)CCC2(C)C [Bexarotene] (max concentration tested 10000 nM)	5.5%
CC[C@]1(O)C[C@H]2CN(CCc3c([nH]c4ccccc34)[C@@](C(=O)OC)(c3cc4c(cc3OC)N(C=O)[C@H]3[C@@](O)(C(=O)OC)[C@H](OC(C)=O)[C@]5(CC)C=CCN6CC[C@]43[C@@H]65)C2)C1 [Vincristine] (max concentration tested 1000 nM)	71.7%
NC(=O)Nc1cc(-c2cccc(F)c2)sc1C(=O)N[C@H]1CCCNC1 [AZD7762] (max concentration tested 1000 nM)	87.4%
Cc1cc(Nc2nc(N[C@@H](C)c3ncc(F)cn3)ncc2Cl)[nH]n1 [AZD1480] (max concentration tested 1000 nM)	77%
C=CCn1c(=O)c2cnc(Nc3ccc(N4CCN(C)CC4)cc3)nc2n1-c1cccc(C(C)(C)O)n1 [MK1775] (max concentration tested 10000 nM)	45.7%

---

test system: normal primary NK cells, pool 2 (3 donors) (IL-2 2.5 ng/mL); experiment: relative IC50 (inflection point of fitted viability curve, relative to fitted max inhibition); higher = less sensitive; conditions: 72 h
Some compounds, each annotated with its measured relative IC50.

compound	value-unit	value-operator	relative IC50
CNC(=O)c1ccc2cc([C@@]3(O)CCn4cncc43)ccc2c1 [Orteronel]	nM	>	10000
CS(=O)(=O)N1CCN(Cc2cc3nc(-c4cccc5[nH]ncc45)nc(N4CCOCC4)c3s2)CC1 [Pictilisib]	nM	=	1950
NS(=O)(=O)OC[C@@H]1C[C@@H](n2ccc3c(N[C@H]4CCc5ccccc54)ncnc32)C[C@@H]1O [Pevonedistat]	nM	=	449
CCCCCCCCc1ccc(CCC(N)(CO)CO)cc1 [Fingolimod]	nM	=	1930
CO[C@H](C(=O)[C@@H](O)[C@@H](C)O)[C@@H]1Cc2cc3cc(O[C@H]4C[C@@H](O[C@@H]5C[C@@H](O)[C@H](O)[C@@H](C)O5)[C@H](O)[C@@H](C)O4)c(C)c(O)c3c(O)c2C(=O)[C@H]1O[C@H]1C[C@@H](O[C@@H]2C[C@@H](O)[C@@H](O[C@@H]3C[C@](C)(O)[C@H](O)[C@@H](C)O3)[C@@H](C)O2)[C@H](O)[C@@H](C)O1 [Plicamycin]	nM	=	692
CN[C@@H](C)C(=O)N[C@H](C(=O)N1CCC[C@H]1c1nc(C(=O)c2ccc(F)cc2)cs1)C1CCCCC1 [LCL161]	nM	=	772

---

Some compounds, each annotated with its measured percent inhibition of viability.
tested on: normal primary NK cells, pool 1 (3 donors), resting (IL-2 0 ng/mL); test: percent inhibition of viability; higher = more inhibition; conditions: 72 h; 100 nM
measured-quantity: percent inhibition of viability (%)

compound	system-name	observed-value
O=C(O)CCCc1ccc(N(CCCl)CCCl)cc1 [Chlorambucil] (max concentration tested 10000 nM)	normal primary NK cells, pool 1 (3 donors), resting (IL-2 0 ng/mL)	2.57
Cn1c(=O)n(-c2ccc(C(C)(C)C#N)cc2)c2c3cc(-c4cnc5ccccc5c4)ccc3ncc21 [Dactolisib] (max concentration tested 1000 nM)	normal primary NK cells, pool 1 (3 donors), resting (IL-2 0 ng/mL)	38.7
COc1cc([C@@H]2c3cc4c(cc3[C@@H](O[C@@H]3O[C@@H]5CO[C@@H](C)O[C@H]5[C@H](O)[C@H]3O)[C@H]3COC(=O)[C@H]23)OCO4)cc(OC)c1O [Etoposide] (max concentration tested 10000 nM)	normal primary NK cells, pool 1 (3 donors), resting (IL-2 0 ng/mL)	22.8

---

test system: normal primary NK cells, pool 1 (3 donors) (IL-2 2.5 ng/mL); test: percent inhibition of viability; higher = more inhibition; conditions: 72 h; 1 nM
Doc: threshold -10% (exclusive). Items with percent inhibition of viability beneath it return t; others return f.

molecule	assigned-label
CCC1(c2ccc(N)cc2)CCC(=O)NC1=O (configuration not stated) [Aminoglutethimide] (max concentration tested 10000 nM)	f
CC[C@]1(O)C[C@H]2CN(CCc3c([nH]c4ccccc34)[C@@](C(=O)OC)(c3cc4c(cc3OC)N(C=O)[C@H]3[C@@](O)(C(=O)OC)[C@H](OC(C)=O)[C@]5(CC)C=CCN6CC[C@]43[C@@H]65)C2)C1 [Vincristine] (max concentration tested 1000 nM)	f
N#CCNC(=O)c1ccc(-c2ccnc(Nc3ccc(N4CCOCC4)cc3)n2)cc1 [Momelotinib] (max concentration tested 10000 nM)	t
CNC(=O)c1ccccc1Sc1ccc2c(/C=C/c3ccccn3)n[nH]c2c1 [Axitinib] (max concentration tested 10000 nM)	f
CC[C@H](CC#N)OC(=O)N[C@@H](C)c1cccc(NC(=O)Nc2ccc(-c3cnco3)c(OC)c2)c1 [AVN944] (max concentration tested 10000 nM)	f
Cc1c(CN2CCN(C(=O)[C@H](C)O)CC2)sc2c(N3CCOCC3)nc(-c3cnc(N)nc3)nc12 [Apitolisib] (max concentration tested 10000 nM)	t

---

test system: KHYG-1 (IL-2 2.5 ng/mL); assay: percent inhibition of viability; higher = more inhibition; conditions: 72 h; 10 nM
Some compounds, each annotated with its measured percent inhibition of viability.
measured-quantity: percent inhibition of viability

compound	observed-value
CN(C)CCN1C(=O)c2cccc3cc(N)cc(c23)C1=O [Amonafide] (max concentration tested 10000 nM)	2.23%
O=C(CCCCCCC(=O)Nc1ccc([C@H]2O[C@@H](CSc3nc(-c4ccccc4)c(-c4ccccc4)o3)C[C@@H](c3ccc(CO)cc3)O2)cc1)NO [Tubacin] (max concentration tested 10000 nM)	-3.16%
C[C@@H]1C[C@H]2[C@@H]3CCC4=CC(=O)C=C[C@]4(C)[C@@]3(F)[C@@H](O)C[C@]2(C)[C@@]1(O)C(=O)CO [Dexamethasone] (max concentration tested 10000 nM)	14.1%
Cc1c(N)nc([C@H](CC(N)=O)NC[C@H](N)C(N)=O)nc1C(=O)N[C@H](C(=O)N[C@H](C)[C@@H](O)[C@H](C)C(=O)N[C@H](C(=O)NCCc1nc(-c2nc(C(=O)NCCC[S+](C)C)cs2)cs1)[C@@H](C)O)[C@@H](OC1OC(CO)C(O)C(O)C1OC1OC(CO)C(O)C(OC(N)=O)C1O)c1cnc[nH]1 (stereo not given in full) [Bleomycin] (max concentration tested 10000 nM)	-5.7%
NC(=S)N/N=C/c1ncccc1N [Triapine] (max concentration tested 10000 nM)	-0.9%
